System: DU-145
assay_name: NCI tumour cell line growth inhibition, 48 h
Active and inactive are the calls of the source. Cut-off read from the data, not from the text of the source: active = GI50 up to about 1.1 µM and inactive = higher.
Respond only with the outcome that fits, drawn from active, inactive

Field: example entries. Status: answers known.
| compound | category |
| --- | --- |
| COC(=O)NCCc1n[nH]c2c1C(=O)C=C(Nc1ccccc1OC)C2=O | inactive |
| CC(=O)NNC(=O)C1CCCCN1 (stereo not given) | inactive |
| CCSCCC(N)C(=O)O (stereo not given) | inactive |

*Q* Could you kindly confirm the outcome this assay logged for CC(=O)N(C)c1cc(NCc2ccccc2)ccc1OCc1ccccc1 ?
*A* inactive

*Q* Next: C=C1c2[nH]c3ccccc3c2C2C(CC)C1CCN2C (stereo not given)
*A* inactive

*Q* Next: O=C1CNCCCN2CCN(CCCNCC(=O)Nc3ccc(cc3)S(=O)(=O)c3ccc(cc3)NC(=O)CNCCCN3CCN(CCCNCC(=O)Nc4ccc(cc4)S(=O)(=O)c4ccc(cc4)N1)CC3)CC2
*A* inactive

*Q* Next: CC(C)n1c(=O)[nH]n(-c2ccccc2)c1=O
*A* inactive

*Q* Next: COC(=O)C(N)CCCC(N)C(=O)NC(C)C(=O)NC(CCC(=O)NCCNCCNc1c2ccccc2nc2cccc([N+](=O)[O-])c12)C(N)=O (stereo not given)
*A* inactive

*Q* Next: CC(=O)Nc1ccc(CNc2cc(=O)[nH]c(=O)[nH]2)cc1
*A* inactive

*Q* Next: NC(=O)c1nnsc1NC=O
*A* inactive

*Q* Next: COc1ccc2[nH]c3c([N+](=O)[O-])ccc(Cl)c3c(=O)c2c1
*A* inactive

*Q* Next: O=C1c2cccc3cc([N+](=O)[O-])cc(c23)C(=O)N1CCCN1CCN(CCCNc2ccc3ncn4c5ccccc5c(=O)c2c34)CC1
*A* active

*Q* Next: O=S(=O)(O)c1c(Cl)cc(O)c2ncccc12
*A* inactive

*Q* Next: NC(=O)Nc1n[nH]c(-c2ccccc2)n1
*A* inactive

*Q* Next: COC(=O)c1c(C(=O)OC)c2c3ccccc3n(C)c2c2c1c1ccccc1n2C
*A* inactive

*Q* Next: CC(C)=CC(=O)C[C@H]1C(=O)O[C@@H]2C[C@H]3C(C)=CC(=O)[C@@H](O)[C@]3(C)[C@H]3[C@@]4(O)OC[C@]32[C@@H]1[C@@H](C)[C@H]4O
*A* active

*Q* Next: COc1ccc(OC)c2c(C)ccnc12
*A* inactive

*Q* Next: CC(=O)OCc1ccc2oc(=O)c(C(=O)Oc3ccccc3)cc2c1
*A* inactive

*Q* Next: COC(=O)c1ccc2c(O)c(O)ccc2c1
*A* inactive

*Q* Next: COc1cccc2c1C(=O)c1ccc3cc(CCl)cc(O)c3c1C2=O
*A* active

* * *

Tested on: RXF 393
assay_name: NCI tumour cell line growth inhibition, 48 h
Calls of active or inactive are those of the source. Rule as the data show it: active = GI50 up to about 1.1 µM and inactive = higher.
quantity_kind: GI50

Solved entries:
| molecule | GI50 |
| --- | --- |
| CC(=O)N1CCN(CCCCN2c3ccccc3Sc3cc(N=[N+]=[N-])ccc32)CC1 | 9.1 µM (inactive) |
| O=c1c(-c2ccccc2)c(SCCN2CCCC2)n(-c2ccccc2)c(=S)n1-c1ccccc1 | > 100 µM (inactive) |
| N#Cc1c(=O)c2ccccc2n2c1[nH]c1ccccc12 | 4.44 µM (inactive) |

*Q* Entry under review: CC(=O)c1ccc(N2C(=O)C3c4[nH]c5ccccc5c4C4CCC(C(C)(C)C)CC4C3C2=O)cc1 (stereo not drawn) . Reported GI50?
*A* 17.9 µM (inactive)

*Q* Next: CCC(C#N)(c1ccccc1)N(CCc1ccccc1)C(=O)c1ccccc1 (stereo not drawn)
*A* 24.5 µM (inactive)

*Q* Next: CC1(C)CCCCCCC2CC2CCCCCC(C)(C)C1=O (stereo not drawn)
*A* 24.3 µM (inactive)

*Q* Next: COc1c(CC=C(C)C)c(O)c(C(CC(C)C)c2c(O)c(C(C)=O)c(O)c3c2OC(C(C)(C)O)C3)c(O)c1C(C)=O (stereo not drawn) [ACROFOLIONE A]
*A* 2.88 µM (inactive)

*Q* Next: CN(C(=O)c1cccs1)C(=S)N1CCN(c2ccccn2)CC1
*A* > 100 µM (inactive)

*Q* Next: COc1ccc(/N=N/c2c(C)c(C#N)c(=S)n(C3OC(COC(C)=O)C(OC(C)=O)C(OC(C)=O)C3OC(C)=O)c2C)cc1 (stereo not drawn)
*A* 62.5 µM (inactive)

*Q* Next: C=C1c2[nH]c3ccccc3c2C2C(CC)C1CCN2C (stereo not drawn)
*A* > 100 µM (inactive)

*Q* Next: COc1cc2ccnc(-c3c4ccccc4c(N)c4c(OC)c(OC)ccc34)c2cc1OC
*A* 2.4 µM (inactive)
